Catalogue of Thrombin selectivity values
- experimental system: human thrombin (Homo sapiens, UniProt P00734)
- Construct: addition of 20 μ2L human thrombin (5 U/mL, SIGMA, T 1063); purchased SIGMA T 1063
- test: Assay for thrombin-inhibiting activity (chromogenic substrate FVR-pNa)
- Assay type: biochemical
- test parameters: ratio IC50 Thrombin / IC50 Factor VIIa
Lab note: record the figure alone, no unit after it.

Reference set (2 entries):
1. CCS(=O)(=O)N[C@H](Cc1ccc(OC)cc1)C(=O)N[C@@H](CCC(N)=O)C(=O)NCc1ccc(C(=N)N)cc1 :: 5
2. N=C(N)c1ccc(CNC(=O)[C@H](CCC(N)=O)NC(=O)[C@H](N)Cc2ccc(-c3ccccc3)cc2)cc1 :: 20

Field: next compound
Entry `CCS(=O)(=O)N[C@H](Cc1ccc(-c2ccccc2)cc1)C(=O)N[C@@H](CCSC)C(=O)NCc1ccc(C(=N)N)cc1` , Thrombin selectivity reported as 1

---

- experimental system: human factor VIIa (Homo sapiens, UniProt P08709)
- Sequence (P08709 213-466 limits assumed): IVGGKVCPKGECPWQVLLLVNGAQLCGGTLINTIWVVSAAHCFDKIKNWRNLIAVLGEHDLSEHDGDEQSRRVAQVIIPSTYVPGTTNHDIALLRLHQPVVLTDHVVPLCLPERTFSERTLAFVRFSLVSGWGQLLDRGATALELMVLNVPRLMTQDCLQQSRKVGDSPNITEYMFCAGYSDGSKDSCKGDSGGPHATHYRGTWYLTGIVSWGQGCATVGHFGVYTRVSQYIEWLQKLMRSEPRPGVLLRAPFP
- Sequence (P08709 61-212 limits assumed): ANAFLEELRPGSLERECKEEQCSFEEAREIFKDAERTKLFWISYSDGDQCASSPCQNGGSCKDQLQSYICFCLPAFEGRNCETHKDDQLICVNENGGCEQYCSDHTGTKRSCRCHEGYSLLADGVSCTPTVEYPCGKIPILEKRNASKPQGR
- Sequence (P13726 33-295 partner): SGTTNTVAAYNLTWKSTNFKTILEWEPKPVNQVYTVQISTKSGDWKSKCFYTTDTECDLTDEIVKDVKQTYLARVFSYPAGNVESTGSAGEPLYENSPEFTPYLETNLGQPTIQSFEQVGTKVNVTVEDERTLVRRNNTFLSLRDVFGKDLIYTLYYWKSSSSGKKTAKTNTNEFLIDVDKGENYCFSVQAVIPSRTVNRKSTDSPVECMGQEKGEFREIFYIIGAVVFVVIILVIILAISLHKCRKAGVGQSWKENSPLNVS
Grouping key: IC50. Bins: low (below 60 nM), medium (60 nM to below 100 nM), high (100 nM or more)

1) N=C(N)c1ccc(CNC(=O)[C@H](CCC(N)=O)NC(=O)[C@H](N)Cc2ccc(-c3ccccc3)cc2)cc1 :: high
2) CCS(=O)(=O)N[C@H](Cc1c[nH]c2ccc(OC)cc12)C(=O)N[C@@H](CCC(N)=O)C(=O)NCc1ccc(C(=N)N)cc1 :: medium

Problem: Returns: class label. Input: `CCS(=O)(=O)N[C@H](Cc1ccc(OC)cc1)C(=O)N[C@@H](CCC(N)=O)C(=O)NCc1ccc(C(=N)N)cc1`
Result: medium

Problem: Returns: class label. Input: `CCS(=O)(=O)N[C@H](Cc1c[nH]c2ccc(C)cc12)C(=O)N[C@@H](CCC(N)=O)C(=O)NCc1ccc(C(=N)N)cc1`
Result: high

Problem: Returns: class label. Input: `CCS(=O)(=O)N[C@H](Cc1c[nH]c2ccc(OCc3cccc(C(=O)O)c3)cc12)C(=O)N[C@@H](CCC(N)=O)C(=O)NCc1ccc(C(=N)N)cc1`
Result: low

Problem: Returns: class label. Input: `CCS(=O)(=O)N[C@H](Cc1c[nH]c2ccccc12)C(=O)N[C@@H](CCC(N)=O)C(=O)NCc1ccc(C(=N)N)cc1`
Result: medium

Problem: Returns: class label. Input: `CCCOc1ccc2[nH]cc(C[C@@H](NS(=O)(=O)CC)C(=O)N[C@@H](CCC(N)=O)C(=O)NCc3ccc(C(=N)N)cc3)c2c1`
Result: low

Problem: Returns: class label. Input: `N=C(N)c1ccc(CNC(=O)[C@H](CCC(N)=O)NC(=O)[C@@H](Cc2c[nH]c3ccccc23)NS(=O)(=O)CC(=O)O)cc1`
Result: high

Problem: Returns: class label. Input: `CCS(=O)(=O)N[C@H](Cc1c[nH]c2ccc(OCc3ccccc3)cc12)C(=O)N[C@@H](CCC(N)=O)C(=O)NCc1ccc(C(=N)N)cc1`
Result: low

---

Catalogue of pIC50 values
- experimental system: human factor VIIa (Homo sapiens, UniProt P08709)
- test: biochemical
- Method: 1. Assay for FVIIa-inhibiting Activity A 10 vol % DMSO solution of a test compound (20 μL) was mixed with 40 μL Thromborel®S (50 mg/mL, Dade Behring, GTS-200A), 20 μL Spectrozyme®fVIIa (5 mmol/L, American Diagnostica Inc., #217L), 20 μL Tris buffer (500 mmol/L Tris/HCl, pH 7.5, 1500 mmol/L NaCl, 50 mmol/L CaCl2) and 80 μL distilled water, followed by stirring. […] The initial reaction velocity was set to 100% in the case of adding 10 vol % DMSO alone, instead of a test compound. […]
// pIC50 is dimensionless: -log10 of concentration (M)

Reference set (2 entries):
1. CCS(=O)(=O)N[C@H](Cc1ccc(-c2ccccc2)cc1)C(=O)N[C@@H](CCSC)C(=O)NCc1ccc(C(=N)N)cc1 :: 6.47
2. N=C(N)c1ccc(CNC(=O)[C@H](CCC(N)=O)NC(=O)[C@@H](Cc2c[nH]c3ccccc23)NS(=O)(=O)Cc2cccc(C(=O)O)c2)cc1 :: 7.43

Field: next compound
Entry `CCS(=O)(=O)N[C@H](Cc1ccc(C(=O)c2ccccc2)cc1)C(=O)N[C@@H](CCC(N)=O)C(=O)NCc1ccc(C(=N)N)cc1` , pIC50 reported as 6.75
